- tested.on: Neutrophil elastase (Homo sapiens, UniProt P08246)
- Sequence (P08246 whole entry): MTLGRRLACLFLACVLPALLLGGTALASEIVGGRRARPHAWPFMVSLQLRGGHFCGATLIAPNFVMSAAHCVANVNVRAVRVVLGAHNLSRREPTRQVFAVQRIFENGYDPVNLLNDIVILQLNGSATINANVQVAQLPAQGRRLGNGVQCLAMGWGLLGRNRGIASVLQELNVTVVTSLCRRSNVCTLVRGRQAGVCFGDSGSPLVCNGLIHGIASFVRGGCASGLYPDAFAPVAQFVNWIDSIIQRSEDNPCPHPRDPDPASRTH
- assay.info: Inhibition of human neutrophil elastase by enzymatic assay
Each record is given Condition met if its reported IC50 is strictly below 20 µM. Records at or above 20 µM are given Condition not met.

Please review the following examples before continuing.
molecule	answer.label
CC(NC(=O)c1ccccc1/N=N/c1c(O)ccc2ccccc12)c1ccccc1 (centres undefined)	Condition met
COC(=O)[C@@H](Cc1ccccc1)NC(=O)c1ccccc1/N=C/c1c(O)ccc2ccccc12	Condition not met
COC(=O)[C@@H](Cc1ccccc1)NC(=O)c1ccccc1/N=N/c1c(O)ccc2ccccc12	Condition met
COC(=O)[C@@H](NC(=O)c1ncccc1/N=N/c1c(O)ccc2ccccc12)c1ccccc1	Condition not met
COC(=O)[C@H](NC(=O)c1ccccc1/N=N/c1c(O)ccc2ccccc12)c1ccccc1	Condition met

is_below(IC50, 20 µM) for CC(NC(=O)c1ccccc1/N=C/c1ccccc1O)c1ccccc1 (centres undefined) ?
Condition not met

A record lists C[C@@H](NC(=O)c1ccccc1/N=C/c1c(O)ccc2ccccc12)C1CCCCC1 . Is its IC50 below 20 µM?
Condition not met

IC50 under 20 µM? Item: COC(=O)[C@@H](NC(=O)c1ccccc1/N=C/c1c(O)ccc2ccccc12)c1ccccc1
Condition not met

Does O=C(N[C@@H](Cc1ccccc1)C(=O)O)c1ccccc1/N=N/c1c(O)ccc2ccccc12 have IC50 strictly under 20 µM?
Condition not met
